assay: Selectivity index, ratio of CC50 for African green monkey Vero cells to MIC for Mycobacterium tuberculosis H37Rv; assay type: toxicity; conditions: read-out: Selectivity Index
Labelling: selectivity ratio reported below 300 becomes MET; at or above becomes NOT MET.

Please review the entries below; each comes with its answer.
O=C(CCc1cn(Cc2cn(Cc3ccc(F)cc3)nn2)c2ccccc12)N1CCN(C(=O)c2ccc(Cl)cc2)CC1: MET
O=C(CCc1cn(Cc2cn(Cc3ccc(F)cc3)nn2)c2ccccc12)N1CCN(C(=O)c2ccnc(Cl)c2)CC1: NOT MET
Cc1ccc(C(=O)N2CCN(C(=O)CCc3cn(Cc4cn(Cc5ccc(F)cc5)nn4)c4ccccc34)CC2)cc1: NOT MET
O=C(CCc1cn(Cc2cn(Cc3ccc(F)cc3)nn2)c2ccccc12)N1CCN(C(=O)c2ccccc2C(F)(F)F)CC1: MET

# ---- query compound ----
Hi there! Is selectivity ratio for `O=C(Cc1cn(Cc2ccc(F)cc2)c2ccccc12)N1CCN(C(=O)c2ccc(F)cc2)CC1` below 300, do you know?
MET

---

Each entry below carries its reported zone of inhibition at 25 µg/mL.
tested on: Pseudomonas aeruginosa; test: Antibacterial activity against Pseudomonas aeruginosa assessed as inhibition zone at 25 ug/ml by diffusion method; assay type: functional; settings: read-out: IZ
Just the number please, in mm, no unit attached.

Worked examples, 3 compounds total:
O=C(CCc1cn(Cc2cn(Cc3ccc(F)cc3)nn2)c2ccccc12)N1CCN(C(=O)c2ccnc(Cl)c2)CC1: 10
Cc1ccc(S(=O)(=O)N2CCN(C(=O)Cc3c[nH]c4ccccc34)CC2)cc1: 10
O=C(CCc1cn(Cc2ccc(F)cc2)c2ccccc12)N1CCN(S(=O)(=O)c2ccccc2)CC1: 10

Report zone of inhibition at 25 µg/mL from Pseudomonas aeruginosa testing of `O=C(Cc1c[nH]c2ccccc12)N1CCN(S(=O)(=O)c2ccccc2)CC1`
13

---

system: Pseudomonas aeruginosa; test: Antibacterial activity against Pseudomonas aeruginosa assessed as inhibition zone at 25 ug/ml by diffusion method; format: functional; details: read-out: IZ
Each entry below carries its reported zone of inhibition at 25 µg/mL.
Just the number please, in mm, no unit attached.

O=C(CCc1c[nH]c2ccccc12)N1CCN(S(=O)(=O)c2ccc(F)cc2)CC1: 13
O=C(CCc1cn(Cc2cn(Cc3ccc(F)cc3)nn2)c2ccccc12)N1CCN(S(=O)(=O)c2ccccc2)CC1: 10
O=C(CCc1cn(Cc2cn(Cc3ccc(F)cc3)nn2)c2ccccc12)N1CCN(S(=O)(=O)c2ccc(Cl)cc2)CC1: 10
O=C(CCc1cn(Cc2cn(Cc3ccc(F)cc3)nn2)c2ccccc12)N1CCN(C(=O)c2ccccc2C(F)(F)F)CC1: 10

Could you please provide reported zone of inhibition at 25 µg/mL for O=C(O)c1cn(C2CC2)c2cc(N3CCNCC3)c(F)cc2c1=O [CIPROFLOXACIN] ? Thanks!
15

Could you please provide reported zone of inhibition at 25 µg/mL for `Cc1ccc(C(=O)N2CCN(C(=O)Cc3cn(Cc4ccc(F)cc4)c4ccccc34)CC2)cc1` ? Thanks!
10

Could you please provide reported zone of inhibition at 25 µg/mL for `Cc1ccc(S(=O)(=O)N2CCN(C(=O)CCc3c[nH]c4ccccc34)CC2)cc1` ? Thanks!
10

Could you please provide reported zone of inhibition at 25 µg/mL for `Cc1ccc(C(=O)N2CCN(C(=O)CCc3cn(Cc4ccc(F)cc4)c4ccccc34)CC2)cc1` ? Thanks!
10

---

experiment: Cytotoxicity against African green monkey Vero cells measured after 72 hrs by MTT assay; format: toxicity, cell-based; details: chlorocebus sabaeus
Each entry below carries its reported CC50 at 72 h.
Just the number please, in µg/mL, no unit attached.

Worked examples, 5 compounds total:
COc1ccc(C(=O)N2CCN(C(=O)CCc3cn(Cc4cn(Cc5ccc(F)cc5)nn4)c4ccccc34)CC2)cc1: 1470
O=C(CCc1cn(Cc2ccc(F)cc2)c2ccccc12)N1CCN(C(=O)c2ccc(Cl)cc2)CC1: 385
O=C(CCc1cn(Cc2cn(Cc3ccc(F)cc3)nn2)c2ccccc12)N1CCN(C(=O)c2cccnc2Cl)CC1: 946
O=C(CCc1cn(Cc2cn(Cc3ccc(F)cc3)nn2)c2ccccc12)N1CCN(C(=O)c2ccc(F)cc2)CC1: 1200
Cc1ccc(C(=O)N2CCN(C(=O)CCc3cn(Cc4cn(Cc5ccc(F)cc5)nn4)c4ccccc34)CC2)cc1: 1320

Could you please provide reported CC50 at 72 h for `O=C(CCc1cn(Cc2cn(Cc3ccc(F)cc3)nn2)c2ccccc12)N1CCN(C(=O)c2cccnc2)CC1` ? Thanks!
1170

Could you please provide reported CC50 at 72 h for `O=C(CCc1cn(Cc2ccc(F)cc2)c2ccccc12)N1CCN(C(=O)c2ccc(F)cc2)CC1` ? Thanks!
619

Could you please provide reported CC50 at 72 h for `O=C(CCc1cn(Cc2cn(Cc3ccc(F)cc3)nn2)c2ccccc12)N1CCN(C(=O)c2ccccc2C(F)(F)F)CC1` ? Thanks!
837

Could you please provide reported CC50 at 72 h for `O=C(CCc1cn(Cc2cn(Cc3ccc(F)cc3)nn2)c2ccccc12)N1CCN(C(=O)c2ccc(Cl)cc2)CC1` ? Thanks!
986

Could you please provide reported CC50 at 72 h for `O=C(Cc1cn(Cc2ccc(F)cc2)c2ccccc12)N1CCN(C(=O)c2ccc(F)cc2)CC1` ? Thanks!
448

Could you please provide reported CC50 at 72 h for `O=C(CCc1cn(Cc2cn(Cc3ccc(F)cc3)nn2)c2ccccc12)N1CCN(S(=O)(=O)c2ccc(F)cc2)CC1` ? Thanks!
1700

---

system: Pseudomonas aeruginosa; assay: Antibacterial activity against Pseudomonas aeruginosa assessed as inhibition zone at 25 ug/ml by diffusion method; assay type: functional; conditions: read-out: IZ
Property label: zone of inhibition at 25 µg/mL (mm)
Just the number please, in mm, no unit attached.

Could you please provide reported zone of inhibition at 25 µg/mL for `O=C(Cc1cn(Cc2ccc(F)cc2)c2ccccc12)N1CCN(S(=O)(=O)c2ccccc2)CC1` ? Thanks!
10

Could you please provide reported zone of inhibition at 25 µg/mL for `COc1ccc(C(=O)N2CCN(C(=O)CCc3cn(Cc4cn(Cc5ccc(F)cc5)nn4)c4ccccc34)CC2)cc1` ? Thanks!
9

Could you please provide reported zone of inhibition at 25 µg/mL for `O=C(CCc1cn(Cc2cn(Cc3ccc(F)cc3)nn2)c2ccccc12)N1CCN(C(=O)c2ccncc2F)CC1` ? Thanks!
10

Could you please provide reported zone of inhibition at 25 µg/mL for `Cc1ccc(S(=O)(=O)N2CCN(C(=O)CCc3cn(Cc4cn(Cc5ccc(F)cc5)nn4)c4ccccc34)CC2)cc1` ? Thanks!
9

---

Each entry below carries its reported inhibition at 72 h, 6.25 ug/ml.
assay: Cytotoxicity against African green monkey Vero cells assessed as inhibition of cell growth at 6.25 ug/ml measured after 72 hrs by MTT assay relative to control; assay type: toxicity, cell-based; details: chlorocebus sabaeus, at 6.25 µg/mL
Just the number please, in %, no unit attached.

Worked examples, 6 compounds total:
O=C(CCc1cn(Cc2ccc(F)cc2)c2ccccc12)N1CCN(C(=O)c2ccc(F)cc2)CC1: 31.9
O=C(CCc1cn(Cc2cn(Cc3ccc(F)cc3)nn2)c2ccccc12)N1CCN(C(=O)c2ccc(Cl)cc2)CC1: 7.9
O=C(CCc1cn(Cc2cn(Cc3ccc(F)cc3)nn2)c2ccccc12)N1CCN(S(=O)(=O)c2ccccc2)CC1: 11.1
O=C(CCc1cn(Cc2cn(Cc3ccc(F)cc3)nn2)c2ccccc12)N1CCN(S(=O)(=O)c2ccc(F)cc2)CC1: 11.9
COc1ccc(C(=O)N2CCN(C(=O)CCc3cn(Cc4cn(Cc5ccc(F)cc5)nn4)c4ccccc34)CC2)cc1: 8.8
O=C(CCc1cn(Cc2cn(Cc3ccc(F)cc3)nn2)c2ccccc12)N1CCN(C(=O)c2cccnc2Cl)CC1: 10.1

Could you please provide reported inhibition at 72 h, 6.25 ug/ml for `O=C(CCc1cn(Cc2ccc(F)cc2)c2ccccc12)N1CCN(C(=O)c2ccc(Cl)cc2)CC1` ? Thanks!
36.4

Could you please provide reported inhibition at 72 h, 6.25 ug/ml for `O=C(CCc1cn(Cc2cn(Cc3ccc(F)cc3)nn2)c2ccccc12)N1CCN(C(=O)c2ccccc2C(F)(F)F)CC1` ? Thanks!
5.4

Could you please provide reported inhibition at 72 h, 6.25 ug/ml for `O=C(CCc1cn(Cc2cn(Cc3ccc(F)cc3)nn2)c2ccccc12)N1CCN(C(=O)c2cccnc2)CC1` ? Thanks!
11.7

Could you please provide reported inhibition at 72 h, 6.25 ug/ml for `Cc1ccc(C(=O)N2CCN(C(=O)CCc3cn(Cc4cn(Cc5ccc(F)cc5)nn4)c4ccccc34)CC2)cc1` ? Thanks!
9.4

Could you please provide reported inhibition at 72 h, 6.25 ug/ml for `O=C(Cc1cn(Cc2ccc(F)cc2)c2ccccc12)N1CCN(C(=O)c2ccc(F)cc2)CC1` ? Thanks!
33.8

Could you please provide reported inhibition at 72 h, 6.25 ug/ml for `O=C(CCc1cn(Cc2cn(Cc3ccc(F)cc3)nn2)c2ccccc12)N1CCN(C(=O)c2ccc(F)cc2)CC1` ? Thanks!
11.7

Could you please provide reported inhibition at 72 h, 6.25 ug/ml for `O=C(CCc1cn(Cc2cn(Cc3ccc(F)cc3)nn2)c2ccccc12)N1CCN(C(=O)c2ccnc(Cl)c2)CC1` ? Thanks!
11.8

Could you please provide reported inhibition at 72 h, 6.25 ug/ml for `O=C(CCc1cn(Cc2cn(Cc3ccc(F)cc3)nn2)c2ccccc12)N1CCN(C(=O)c2ccncc2F)CC1` ? Thanks!
8.5
